# Test system: UACC-257 melanoma
# Test Description: NCI-60 one-dose screen, 48 h
# Condition Details: 10 µM unless noted
The panel holds about 83,000 compounds, 20% with a hit somewhere; the sample as a whole holds those more often. Calls of active or inactive are those of the source. How the source made its calls: active means growth percent below 10; inactive means the rest.
Entry note: the call must match one of active, inactive

Solved entries (count: 10):
Compound	Answer Label
Cn1cc(-c2csc(-c3cn(CCCN4CCCCC4)c4ccc(F)cc34)n2)c2cccnc21	inactive
Fc1ccc2nc(-c3cc(-c4ccc5c(c4)OCO5)n[nH]3)[nH]c2c1	inactive
N#C/C(=C\c1ccc(-c2cccc(C(F)(F)F)c2)o1)c1nc(-c2ccco2)cs1	inactive
COc1ccc2c(c1)C/C(=C\c1cc(-c3cc(OC)c(OC)c(OC)c3)n[nH]1)C2=O	inactive
COc1ccc(NC(=O)c2ccoc2COc2ccccc2)cc1	inactive
Cn1cc(-c2csc(-c3cn(CCCN4CCCCC4)c4ccc(Br)cc34)n2)c2cccnc21	inactive
N#C/C(=C\c1ccc(-c2ccc(Cl)cc2)o1)c1nc(-c2ccco2)cs1	inactive
C=C(C)[C@@H]1CC[C@]2(C)[C@H](CC=C3[C@@H]4CC(C)(C)CC[C@]4(C=O)CC[C@]32C)[C@@]1(C)CCCN	inactive
O=[N+]([O-])c1cccc(/C=N\Nc2ccccc2)c1	inactive
Cn1nc(-c2ccccc2)c2c(-c3ccccc3)onc2c1=O	inactive

Record lookup: outcome of this test for "Cc1nn(-c2ccc(Cl)cc2)c(=O)n1CCn1cnc2ccccc21" ?
inactive

Record lookup: outcome of this test for COc1cc(/C=C2\C(=O)N(CC(O)COc3cc(O)c4c(=O)cc(-c5ccccc5)oc4c3)c3ccccc32)cc(OC)c1O (stereo not given) ?
inactive

Record lookup: outcome of this test for "COC1=C(Br)C(=O)C(OC)=C(Br)C1=O" ?
inactive

Record lookup: outcome of this test for O=C(NC(Cc1cn(Cc2ccccc2)cn1)C(=O)O)OCC1c2ccccc2-c2ccccc21 (stereo not given) ?
inactive

---

# Tested on: EKVX NSCLC
# Test Description: NCI-60 one-dose screen, 48 h (100 = growth as untreated, 0 = no growth, -100 = all killed)
# Condition Details: 10 µM unless noted
This is part of a sample that, as a whole, favours compounds with a hit. Of some 83,000 tested, about 20% had one in any assay.
The reader will find reported growth values listed item by item below.
Lab book: enter the figure in %, no units written.

Compound	Measured Parameter	Uom	Numeric Readout
CC(C)(C)c1ccc(OCCCCCCCN2CCNCC2)cc1	growth	%	70
COc1cccc2c1C(=O)c1c(O)c3c(c(O)c1C2=O)C[C@@](O)(C(=O)CO)C[C@@H]3OC1C[C@H](N)[C@H](O)[C@H](C)O1 (stereo not given in full)	growth	%	1.39
C=C(C)[C@@H]1CC[C@]2(c3nnc(-c4ccncc4)o3)CC[C@]3(C)[C@H](CC[C@@H]4[C@@]5(C)CCC(=O)NC(C)(C)[C@@H]5CC[C@]43C)[C@@H]12	growth	%	95.1
O=C(/C=C\c1ccc2c(c1)OCO2)/C=C/c1ccc2c(c1)OCO2	growth	%	82.4

Identify measured growth associated with "COc1cc2c3c(c4c5ccccc5[nH]c4c2c(OC)c1OC)C(=O)N(O)C3=O"
97.1

Identify measured growth associated with "O=C(O)c1cccc2c1Cc1cc([N+](=O)[O-])ccc1-2"
61.9

Identify measured growth associated with "N=C(N)c1ccc(S(N)(=O)=O)cc1"
96.2

Identify measured growth associated with "O=C1C=Cc2ncccc2C1=O"
64.7

Identify measured growth associated with "O=C1C(=O)N(CCCCn2cc(-c3ccccc3)nn2)c2ccccc21"
93.9

Identify measured growth associated with "N#C/C(=C\c1ccc(-c2ccc(Cl)cc2)o1)c1nc(-c2ccco2)cs1"
48.6

Attribution: PubChem BioAssay (NCI)
